Quick list: relative cell count per entry.
# Test system: U-2 OS
# testDetails: relative cell count vs DMSO (cell painting) (fraction of DMSO control); higher = more cells remaining (less cytotoxic)
# measurementContext: 1.25 µM; 24 h
quantityName: relative cell count

compound=COC(=O)Nc1nc2ccc(C(=O)c3cccs3)cc2[nH]1 assaytarget="U-2 OS" reportedresult=0.265
compound=O=[N+]([O-])c1ccc(-c2nnc(SC3=CS(=O)(=O)c4ccccc43)o2)cc1 assaytarget="U-2 OS" reportedresult=0.893
compound=CC[C@H]1CN2CCc3cc(OC)c(OC)cc3[C@@H]2C[C@@H]1C[C@H]1NCCc2cc(OC)c(OC)cc21.Cl.Cl.O assaytarget="U-2 OS" reportedresult=0.489
compound=CCCCCCCCCCCCCCCc1cccc(O)c1C(=O)O assaytarget="U-2 OS" reportedresult=1.09
compound=C[C@H]1CCC/C=C/[C@@H]2C[C@H](O)C[C@H]2[C@H](O)/C=C/C(=O)O1 assaytarget="U-2 OS" reportedresult=0.645
compound="CC(=O)OC1C(c2ccc(=O)oc2)C2(C)CCC3C(CCC4CC(O)CCC43C)C23OC13 (stereo not drawn)" assaytarget="U-2 OS" reportedresult=0.27
compound=C=CCNC1=C2C[C@@H](C)C[C@H](OC)[C@H](O)[C@@H](C)/C=C(\C)[C@H](OC(N)=O)[C@@H](OC)/C=C\C=C(/C)C(=O)NC(=CC1=O)C2=O assaytarget="U-2 OS" reportedresult=0.697
compound=N[C@@H](Cc1ccc(N(CCCl)CCCl)cc1)C(=O)O assaytarget="U-2 OS" reportedresult=0.939

----------
# System: U-2 OS
# testDetails: cell painting activity score (Mahalanobis distance from DMSO wells); higher = stronger morphological phenotype
# measurementContext: 5 µM; 24 h
Label 1.0 when cell painting activity score is at or above 8; otherwise label 0.0.

compound=O=C1/C(=C/c2ccc(O)c(Br)c2)CCC/C1=C\c1ccc(O)c(Br)c1 classassignment=1.0
compound=CC(C)C[C@@H](C=O)NC(=O)[C@H](CC(C)C)NC(=O)[C@H](CC(C)C)NC(=O)OCc1ccccc1 classassignment=1.0
compound=COc1ccc(/C(Cl)=C(/C=O)c2ccc(OC)cc2)cc1 classassignment=1.0
compound=COc1cc2c(c(OC)c1OC)-c1ccc(OC)c(=O)cc1[C@@H](NC(C)=O)CC2 classassignment=1.0
compound=C[C@@H]1O[C@@H](O[C@H]2[C@H](OC(=O)[C@]34CCC(C)(C)C[C@H]3C3=CC[C@@H]5[C@@]6(C)C[C@H](O)[C@H](O[C@@H]7O[C@H](CO)[C@@H](O)[C@H](O)[C@H]7O)[C@@](C)(CO)[C@@H]6CC[C@@]5(C)[C@]3(C)CC4)O[C@H](CO)[C@@H](O)[C@@H]2O)[C@H](O)[C@H](O)[C@H]1O[C@@H]1OC[C@@H](O)[C@H](O)[C@H]1O classassignment=0.0
compound=O=C(O)CSc1cc(NS(=O)(=O)c2ccc(Br)cc2)c2ccccc2c1O classassignment=0.0
compound="O=C(CSC1CC(=O)N(c2cccc(Cl)c2)C1=O)Nc1ccc(Br)cc1 (centres undefined)" classassignment=0.0
compound=CCCCc1c(-c2ccc(OC)cc2)[nH]c2nccnc12 classassignment=0.0
compound=O=C(O)C1=CC(=C(c2ccc(O)c(C(=O)O)c2)c2ccc(O)c(C(=O)O)c2)C=CC1=O classassignment=0.0
compound=O=c1cc(N2CCOCC2)oc2c(-c3ccccc3)cccc12 classassignment=0.0
compound=CO[C@H]1C[C@@H]2CC[C@@H](C)[C@@](O)(O2)C(=O)C(=O)N2CCCC[C@H]2C(=O)O[C@H]([C@H](C)C[C@@H]2CC[C@@H](O)[C@H](OC)C2)CC(=O)[C@H](C)/C=C(\C)[C@@H](O)[C@@H](OC)C(=O)[C@H](C)C[C@H](C)/C=C/C=C/C=C/1C classassignment=1.0
compound=CCCCCCCCCCCC1=C(O)C(=O)C=C(O)C1=O classassignment=0.0
compound=COc1ccc2c(c[n+](C)c3c4cc5c(cc4ccc23)OCO5)c1OC classassignment=1.0
compound="COc1ccc(N2C(=O)CC(Sc3nnc(-c4ccccc4)o3)C2=O)cc1 (centres undefined)" classassignment=0.0
compound=CC1=CC(=O)c2ccccc2C1=O classassignment=0.0
compound=O=c1c(O)c(-c2ccc(O)c(O)c2)oc2cc(O)ccc12 classassignment=0.0
compound="O=C1c2ccccc2[Se](=O)N1c1ccccc1 (centres undefined)" classassignment=1.0
compound=O=S1(=O)C=C(Sc2nn(-c3ccccc3)c(=S)s2)c2ccccc21 classassignment=1.0
compound=COc1ccc(/C(Cl)=C(\C=O)c2ccc(OC)cc2)cc1 classassignment=1.0
compound=CC1(C)CCC2=C(O1)c1ccccc1C(=O)C2=O classassignment=0.0
compound=O=C1C(NCCN2CCOCC2)=C(Cl)C(=O)c2ncccc21 classassignment=1.0
compound=O=C1C(Cl)=C(NCCN2CCOCC2)C(=O)c2ncccc21 classassignment=1.0
compound="CCOc1ccccc1-n1c(C(C)N2CCN(C(=O)COc3ccc(Cl)cc3)CC2)nc2ccccc2c1=O (centres undefined)" classassignment=1.0
compound="CC1OC2=C(C(=O)C(=O)c3ccccc32)C1(C)C (centres undefined)" classassignment=1.0
compound=CC(C)C[C@H](NC(=O)[C@H](Cc1ccccc1)NC(=O)c1cnccn1)B(O)O classassignment=1.0
compound=COC1=CC=C(S(=O)(O/N=C2C=C(C(C(C)=C\2)=O)C)=O)C=C1 classassignment=1.0
compound=CC[C@]1(O)C[C@@H]2CN(CCc3c([nH]c4ccccc34)[C@@](C(=O)OC)(c3cc4c(cc3OC)N(C)[C@H]3[C@@](O)(C(=O)OC)[C@H](OC(C)=O)[C@]5(CC)C=CCN6CC[C@]43[C@@H]65)C2)C1 classassignment=1.0
compound=C=CC(=O)Nc1cccc(Oc2nc(Nc3ccc(N4CCN(C)CC4)cc3OC)ncc2Cl)c1 classassignment=1.0
compound=COc1cc2ncnc(Nc3ccc(F)c(Cl)c3)c2cc1NC(=O)/C=C/CN1CCCCC1 classassignment=1.0
compound=Nc1c[n+](N2CCOCC2)no1.[Cl-] classassignment=1.0
compound="O=S1(=O)CC(SCc2ccccc2)c2ccccc21 (centres undefined)" classassignment=0.0
compound=CCc1c2c(nc3ccc(O)cc13)-c1cc3c(c(=O)n1C2)COC(=O)[C@]3(O)CC classassignment=1.0
compound=COC[C@H]1OC(=O)c2coc3c2[C@@]1(C)C1=C(C3=O)[C@@H]2CCC(=O)[C@@]2(C)C[C@H]1OC(C)=O classassignment=1.0
